pIC50: −log10 of the molar value.
Across several studies, compounds have been characterized by their pIC50 on BTK (Homo sapiens); a selection follows.
Sequence (Q06187 whole entry): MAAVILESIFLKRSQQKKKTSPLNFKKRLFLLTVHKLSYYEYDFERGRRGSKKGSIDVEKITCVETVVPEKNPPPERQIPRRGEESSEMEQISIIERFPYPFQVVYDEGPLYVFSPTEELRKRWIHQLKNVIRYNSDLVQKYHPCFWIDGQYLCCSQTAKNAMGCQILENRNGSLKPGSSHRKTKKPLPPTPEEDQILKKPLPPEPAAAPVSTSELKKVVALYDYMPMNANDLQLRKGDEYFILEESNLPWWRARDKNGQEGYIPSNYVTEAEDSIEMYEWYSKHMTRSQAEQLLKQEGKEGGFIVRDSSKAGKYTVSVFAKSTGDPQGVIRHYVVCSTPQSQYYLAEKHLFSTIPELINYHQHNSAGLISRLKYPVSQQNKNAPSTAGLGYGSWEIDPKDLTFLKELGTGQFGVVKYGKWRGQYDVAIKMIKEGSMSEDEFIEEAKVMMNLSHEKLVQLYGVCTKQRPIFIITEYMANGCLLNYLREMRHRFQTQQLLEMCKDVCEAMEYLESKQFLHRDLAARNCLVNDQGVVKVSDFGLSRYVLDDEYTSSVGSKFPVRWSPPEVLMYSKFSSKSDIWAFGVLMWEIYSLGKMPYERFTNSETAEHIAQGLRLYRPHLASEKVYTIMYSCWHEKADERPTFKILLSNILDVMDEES

Known results for compounds:
>  <Compound>
c1ccc(Oc2ccc3nc(Nc4cnn(C5CCNCC5)c4)sc3n2)cc1

>  <Quantity>
pIC50

>  <Value>
5.58

$$$$
>  <Compound>
Cc1cccc(NC(C(=O)NC2CCCN(c3ncnc4[nH]ccc34)C2)C2CCCC2)c1 (centres unmarked)

>  <Quantity>
pIC50

>  <Value>
5.00 to 6.00

$$$$
>  <Compound>
C=CC(=O)N1CCC[C@@H](n2nc(-c3ccc(C(=O)Nc4cc(F)ccn4)cc3)c3c(N)nccc32)C1

>  <Quantity>
pIC50

>  <Value>
8.82

$$$$
>  <Compound>
CNc1cc(-c2nc(C(=O)Nc3cn4cc(CCC(C)(C)O)nc4cc3N3CCCCC3)co2)ccn1

>  <Quantity>
pIC50

>  <Value>
9.15

$$$$
>  <Compound>
C[C@H](NC(=O)c1nc2c(s1)CCCC2)c1ccc(-c2ncnc3[nH]ccc23)cc1

>  <Quantity>
pIC50

>  <Value>
5.00 to 6.00

$$$$

pIC50 value, target or system BTK (Homo sapiens), for `C=CC(=O)Nc1cccc(-c2cc(-c3ccc(C(=O)Nc4ccccn4)cc3Cl)cc3cncnc23)c1` : > 7.00

pIC50 of `C=CC(=O)N1CCC[C@@H](n2nc(-c3ccc(C)c(OC)c3)c3c(N)ncnc32)C1` , assay on BTK (Homo sapiens), is > 7.00

// returns pIC50 for `O=C(CNc1ccc(F)cc1)N[C@@H]1CCCN(c2ncnc3[nH]ccc23)C1` with BTK (Homo sapiens); value = 6.00 to 7.00
